Cited source for all entries: PubChem BioAssay AID1963960

System: MDA-MB-468 spheroids with HUVEC/MSC, viability
Assay: Anticancer human tumor MDA-MB-468 cell line growth inhibition [PI3K];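 also: spheroids exposed to agents for seven days before readout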
Conditions: curve of first compound; second compound 0.0316 µM
Assignment: determine reported pIC50 for the given compounds.
Kindly note that pIC50 refers to -log10 of the concentration in mol/L and answer with the value alone.

Lookup: Form: Entry = CC(C)NCC(C(=O)N1CCN(c2ncnc3c2C(C)CC3O)CC1)c1ccc(Cl)cc1 (stereo not drawn) + CC(Nc1ncnc2nc[nH]c12)c1cc2cccc(Cl)c2c(=O)n1-c1ccccc1 | System = MDA-MB-468 spheroids with HUVEC/MSC, viability | pIC50 = ____
Found: 5.93

Lookup: Now consider CC1(C)CCC(CN2CCN(c3ccc(C(=O)NS(=O)(=O)c4ccc(NCC5CCOCC5)c([N+](=O)[O-])c4)c(Oc4cnc5[nH]ccc5c4)c3)CC2)=C(c2ccc(Cl)cc2)C1 + CC(Nc1ncnc2nc[nH]c12)c1cc2cccc(Cl)c2c(=O)n1-c1ccccc1 .
Found: 5.32
